Measured values drawn from ChEMBL document CHEMBL5724914 for this set.

# assay name: The drug is tested on WLS-082 corresponding to human gut metagenome with ENA study accession number: PRJEB37062 and ENA sample accession number: ERS12561751 for biotransformation under anaerobic condition. The drug concentrations were measured over 9 timepoints collected between 0 and 24 hours of incubation by liquid-chromatography-coupled mass spectrometry (LC–MS); note: call rule not given here
# measurement conditions: 2 µM
measurement type: Bacterial Biotransformation

| compound | meas value |
| --- | --- |
| COc1ccc2[nH]c([S+]([O-])Cc3ncc(C)c(OC)c3C)nc2c1 (configuration not stated) | Compound metabolized |
| CCN(CC)CC#CCOC(=O)C(O)(c1ccccc1)C1CCCCC1.Cl (configuration not stated) [OXYBUTYNIN CHLORIDE] | Compound metabolized |
| Fc1ccc([C@@H]2CCNC[C@H]2COc2ccc3c(c2)OCO3)cc1 | Compound metabolized |
| Nc1c2c(nc3ccccc13)CCCC2 | Compound NOT metabolized |
| CC(C)NCC(O)COc1ccc(COCCOC(C)C)cc1.CC(C)NCC(O)COc1ccc(COCCOC(C)C)cc1.O=C(O)/C=C/C(=O)O (configuration not stated) [BISOPROLOL FUMARATE] | Compound NOT metabolized |
| CN/C(=N/CCSCc1nc[nH]c1C)NC#N | Compound metabolized |

Lab note: next compound to report on.
Query: Specify reported Bacterial Biotransformation for the compound shown: CCCC(=O)Nc1ccc(OCC(O)CNC(C)C)c(C(C)=O)c1 (configuration not stated)
Result: Compound NOT metabolized
